System: LXRa:RXRa (NR concentration 270 nM, RXRa partner concentration 90 nM)
measurement description: PBM binding z-score (relative to random genomic background probes); higher = stronger binding; sequences stand for … in GC…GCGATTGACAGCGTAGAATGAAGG
Listing of recorded PBM binding z-score by entry.
Answer as a number with no unit attached.

[
  {
    "biosequence": "ATACCAAGGTGATCGTGAGGTCATTGATACTAAC",
    "PBM binding z-score": 4.22
  },
  {
    "biosequence": "TCTTGTAGATCAACAGGAGGTTAAGGAAGATCGA",
    "PBM binding z-score": 0.637
  },
  {
    "biosequence": "ATATGTAGGTTAGCTGGGGTCATCCAGACTAGGC",
    "PBM binding z-score": 5.5
  }
]

Reported PBM binding z-score for "GCAAGTTGGTCAGTAAAAGGTCACACACCGGTCG" was 4.29

Reported PBM binding z-score for "ACTCGCAGGACAAAGGTCAGAGCTACGCCAGTGA" was 4.15

Reported PBM binding z-score for "CCTAGTTGGTTAGGAGGTCACACACCGGATATGA" was 3.38

* * *

Test system: LXRb homodimer (NR concentration 270 nM)
measurement description: PBM binding z-score (relative to random genomic background probes); higher = stronger binding; sequences stand for … in GC…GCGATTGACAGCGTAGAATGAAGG
attribute measured: PBM binding z-score
Answer as a number with no unit attached.

Record excerpt, results attached:
[
  {
    "biosequence": "CGGACTAGGTCAGAACAGGACAGTGAAGGATGAT",
    "tested system": "LXRb homodimer (NR concentration 270 nM)",
    "attribute measured": "PBM binding z-score",
    "endpoint value": -0.579
  },
  {
    "biosequence": "CCGGCTGGGGCATAAGGTTACCATAAGCCAGCCC",
    "tested system": "LXRb homodimer (NR concentration 270 nM)",
    "attribute measured": "PBM binding z-score",
    "endpoint value": -1.54
  }
]

Reported PBM binding z-score for "TCATATAGGTAGATGCTAGGTGAAAGTCCGATCT" was -0.423

Reported PBM binding z-score for "GCGTCTGGGGCAAAGCAGGTTACCATAAGGTTGG" was -0.82

Reported PBM binding z-score for "CAGCCGAGGTCAGGGCCAGTATAGGAGGAACGTT" was -0.519

Reported PBM binding z-score for "TCGTATAGGTAATACAGGTGAAAGTCGGCATCTA" was -0.231

Reported PBM binding z-score for "CCGAGTGGGGCATAAGGTTACCATAAGCCAGCCC" was -1.04

Reported PBM binding z-score for "GTAACGAGGGCAAAGTTGATAGCATCTGTCGACG" was 0.169

Reported PBM binding z-score for "TCTCGGACGACACGAAGGTCAGAGCTTTCCAGAG" was -0.374

Reported PBM binding z-score for "CTCGAAAGGTCGTGCACAGGTGAGTATACCAAAC" was 0.385

Reported PBM binding z-score for "CCTCGGAGGACAACATGAGGTCAGAGCTGCCAGA" was -0.278

* * *

System: PPARg DBDmut IVT, anti-PPARg (DBD mutation: PPARg1 K132A/R137A, NR concentration 270 nM)
measurement description: PBM binding z-score (relative to random genomic background probes); higher = stronger binding; sequences stand for … in GC…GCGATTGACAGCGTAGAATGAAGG
attribute measured: PBM binding z-score
Answer as a number with no unit attached.

Record excerpt, results attached:
[
  {
    "biosequence": "GCTCGGAGCACAAGGTCAGAGCTTTGTCCGTAGA",
    "attribute measured": "PBM binding z-score",
    "endpoint value": -1.25
  },
  {
    "biosequence": "TCTTGTAGATCAATAGAGGTTAACAAAGTGCGCT",
    "attribute measured": "PBM binding z-score",
    "endpoint value": 1.56
  },
  {
    "biosequence": "TCTAGCAGGCCAGAGGGACACTCAAGAGGTACGG",
    "attribute measured": "PBM binding z-score",
    "endpoint value": -1.73
  }
]

Entry "ATCTCTAGGTAAGACTCAGTTGAGTGAAGAACGC" under PPARg DBDmut IVT, anti-PPARg (DBD mutation: PPARg1 K132A/R137A, NR concentration 270 nM) had PBM binding z-score of 0.517

Entry "CTACCAAGGTGAACAAGGCCGTTGATTACTATTC" under PPARg DBDmut IVT, anti-PPARg (DBD mutation: PPARg1 K132A/R137A, NR concentration 270 nM) had PBM binding z-score of -0.28

Entry "GTACCAAAGTGAATAGGTCGTTGATGAGTAGGCG" under PPARg DBDmut IVT, anti-PPARg (DBD mutation: PPARg1 K132A/R137A, NR concentration 270 nM) had PBM binding z-score of -0.53

* * *

System: PPARg:RXRa 30nM:10nM, anti-RXR (NR concentration 30 nM, RXRa partner concentration 10 nM)
measurement description: PBM binding z-score (relative to random genomic background probes); higher = stronger binding; sequences stand for … in GC…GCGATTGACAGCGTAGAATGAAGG
Listing of recorded PBM binding z-score by entry.
Answer as a number with no unit attached.

Record excerpt, results attached:
[
  {
    "biosequence": "AGTATTAGTTGAGACGAGGGCAACCGATAGGTTG",
    "PBM binding z-score": 0.0784
  },
  {
    "biosequence": "CAAACTAGGTCGCAGAGGTCAAAGTCCGTGCGTA",
    "PBM binding z-score": 4.01
  }
]

Reported PBM binding z-score for "TCTTGTAGCTCAATAGAGGTTAAGAAAGTGCGCT" was 1.96

Reported PBM binding z-score for "CAGGCTAGGTCAGGGCCAGTATAGGAGGAACGTT" was -0.194

Reported PBM binding z-score for "CATCCAAGGTCAATGCTAGGTCAGTGAAAGCATT" was 1.44

Reported PBM binding z-score for "TCATATAGGTAAATACTAGGTGAAAGTCCGATCT" was 4.4

Reported PBM binding z-score for "AGAATGAGGTTACCAAGGATCAGGGAAACGCTTG" was 1.09

Reported PBM binding z-score for "TCTTGTCGATCAACAGGAGGTTAAGAAAGATCGA" was 1.86

Reported PBM binding z-score for "CCTACTCGGCCATTCAGAGGTCATTGATCATATG" was 0.587

Reported PBM binding z-score for "TAGCCTGGGTCATGCGGGCCAGTATAGTGTCGGC" was 0.16

Reported PBM binding z-score for "TCTTGTAGATCAGCAGGTTTAGAAAGCTGGCCAA" was 2.13

Reported PBM binding z-score for "AGTCAAAGTTCATCTAGGTAAGGTAAGATATGCT" was 3.3

Reported PBM binding z-score for "TCGTATAGGTAAACAGGTGAAAGTCCGTAAGTTA" was 2.92

Reported PBM binding z-score for "ATCTCTAGGTAAAAGTTCAGTGGATCCCGAGGAT" was 7.58

Reported PBM binding z-score for "GGAAAGAGGGCAAAGTTGATAGCATCTGTCGACG" was 5.92

* * *

Test system: PPARg:RXRa 30nM:10nM, anti-RXR (NR concentration 30 nM, RXRa partner concentration 10 nM)
measurement description: PBM binding z-score (relative to random genomic background probes); higher = stronger binding; sequences stand for … in GC…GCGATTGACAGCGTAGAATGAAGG
Rule: PBM binding z-score under 1 gives FALSE, otherwise TRUE.

[
  {
    "biosequence": "GCTCGGAAGACAAGGTCAGAGCTTTGTCCGTAGA",
    "class name": "FALSE"
  },
  {
    "biosequence": "TCTCGGAGGACACGAAGGTCAGGGCTTTCCAGAG",
    "class name": "TRUE"
  }
]

Next:
Input: Could you verify whether the entry "TCATATAGGTAAATGCTAGGTGAGAGTCCGATCT" shows PBM binding z-score of no less than 1?
Output: TRUE

* * *

Listing of recorded PBM binding z-score by entry.
Tested on: THRa homodimer (NR concentration 90 nM)
measurement description: PBM binding z-score (relative to random genomic background probes); higher = stronger binding; sequences stand for … in GC…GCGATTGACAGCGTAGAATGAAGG

Record excerpt, results attached:
[
  {
    "biosequence": "ATCTCTAGGTAAGACTGAGTTCAGTGAAGAACGC",
    "PBM binding z-score": 0.797
  },
  {
    "biosequence": "CCTACTGGGCCACGAAAGGTCATTGAATCAGTGA",
    "PBM binding z-score": 0.999
  },
  {
    "biosequence": "CCGACTGGGGCATAAGGTTACCATTAGCCAGCCC",
    "PBM binding z-score": 1.37
  },
  {
    "biosequence": "ATATGTAGGTTACATCCGGGTCATTAAGGCTATG",
    "PBM binding z-score": 2.8
  },
  {
    "biosequence": "CCTACTGGGCCAAAGTTCATTGATTCCAATGCTC",
    "PBM binding z-score": 0.0374
  },
  {
    "biosequence": "GCTGCTAGGTCAACTGATGGTCGGCTAAAGCTCG",
    "PBM binding z-score": 0.97
  },
  {
    "biosequence": "GCATATAGGTAATACAGGGTGAAAGTCCGATTGT",
    "PBM binding z-score": 0.41
  },
  {
    "biosequence": "CGTCCAAGGTCATAGGAGGGCAGTGAAGACAGAT",
    "PBM binding z-score": 2.17
  },
  {
    "biosequence": "CCTTACGGGTCACTCCAGGTTATAGGATCGGAGT",
    "PBM binding z-score": 0.641
  },
  {
    "biosequence": "ATCGAAAGGTCGTGAGCTGAGTATACAGAAAGGC",
    "PBM binding z-score": -0.456
  }
]

Reported PBM binding z-score for "GCATAGAGGTAATACAAGGTGAAAGTCCGATTGT" was 0.985

Reported PBM binding z-score for "CCTACTGGGCCAAGGACATTGATCAGTCAAAGCA" was 0.695

Reported PBM binding z-score for "CGTCCAAGGTCATAGGAGGTCAGTAAAGACAGAT" was 3.1

Reported PBM binding z-score for "CCGACTGTGGCAAAGGTTACCATACTCAGTACGA" was 0.0506

Reported PBM binding z-score for "CGTCAAAGTTCAACTAAAGTAACGTAAAGCACGC" was 0.0523

Reported PBM binding z-score for "TAGTCTAGGTCAGATCGGGCCAGTATACGCTATA" was 0.664

Reported PBM binding z-score for "CCTCGGAGGACAGAAGGCCAGAGCTGTCCGCTTT" was -0.927

Where do these numbers come from? They come from the supplement of paper PMC6555819.
